System: SF-539
Test: NCI tumour cell line growth inhibition, 48 h
Activity calls are given as the source filed them. Rule as the data show it: active = GI50 up to about 1.1 µM and inactive = higher.
Hi there, use one of these labels in your reply, thanks! active, inactive

Called result for `CC(C)(C)C1=CC(=N/N=c2\scc(-c3ccccc3)n2Cc2ccccc2)C=C(C(C)(C)C)C1=O`
inactive

Called result for `Nc1ncnc2c1ccn2COC(CO)CO`
inactive

Called result for `COC(=O)CCCC(=O)C1=NN(c2ccc(Cl)cc2)Cc2ccccc2N1`
inactive

Called result for `CN(C)/C=C/c1nnc([N+](=O)[O-])s1`
inactive

Called result for C[n+]1c2ccccc2c(NC(CCC(N)=O)C(=O)O)c2ccccc21 (stereo not given)
inactive

Called result for N#CC(C(=O)C(=O)Nc1ccc(Cl)cc1)c1ccccc1 (stereo not given)
inactive

Called result for `O=[N+]([O-])c1cccc2nc3ccccc3c(NCCCNc3c4ccccc4nc4cccc([N+](=O)[O-])c34)c12`
active

Called result for `Cc1ccc2nc(SCC(=O)N/N=C3\C(=O)Nc4ccccc43)n(-c3ccccc3)c(=O)c2c1`
inactive

Called result for `CSC1=NS(=O)(=O)c2cc(C(=O)NN(C)C(=O)c3cc4c(cc3Cl)SC(SC)=NS4(=O)=O)c(Cl)cc2S1`
inactive

Called result for `Cc1c2ccccc2cc2ccc3oc([N+](=O)[O-])cc3c12`
inactive

Called result for Nc1nc(N)c2c(Cl)c(CNc3ccc(C(=O)NC(CC(=O)O)C(=O)O)cc3)ccc2n1 (stereo not given)
active

Called result for Cc1cn(CC2=NCC(O)CN2)c(=O)[nH]c1=O (stereo not given)
inactive

Called result for `N#C/C(=C\c1ccc([N+](=O)[O-])o1)c1n[nH]c(Cc2ccccc2)n1`
inactive

Called result for CC(=O)OCC1OC(On2ccccc2=S)C(OC(C)=O)C(OC(C)=O)C1OC(C)=O (stereo not given)
inactive

Called result for `ClCCCN(CCCCl)c1ccc(/C=N/c2cccc(Cl)c2)cc1`
inactive

Called result for `Cc1cc(S(=O)(=O)[N-]/C(=N/S(=O)(=O)c2ccc(Cl)cc2)[n+]2ccc(N(C)C)cc2)c(S)cc1Cl`
inactive

Called result for `O=C(CC(=O)c1ccccc1)c1ccccc1.O=C(CC(=O)c1ccccc1)c1ccccc1.O=C(CC(=O)c1ccccc1)c1ccccc1.[SiH4]`
inactive

Called result for CNC(=O)OC(COC)CN1CCN(c2ccccc2C)CC1 (stereo not given)
inactive

Called result for COc1cc2c3c(c4cc(OC)c(OC)cc4c2cc1OC)C(=O)C1CCC(=O)N1C3 (stereo not given)
inactive

Called result for NCCCCC(NC(=O)C(N)Cc1ccc(O)cn1)C(=O)O (stereo not given)
inactive
